TEST: in vitro
MEASUREMENT PARAMETERS: human
A collection of compounds and their measured CC50 at 72 h

[
  {
    "COMPOUND": "CC1C/C(=N\\NC(=O)c2ccncc2)c2cc(F)ccc2S1 (stereo not drawn)",
    "CMP": "=",
    "CC50 at 72 h [µM]": 203
  },
  {
    "COMPOUND": "O=C(N/N=C1\\CCSc2ccc(F)cc21)c1ccncc1",
    "CMP": ">",
    "CC50 at 72 h [µM]": 664
  },
  {
    "COMPOUND": "CC1C/C(=N\\NC(=O)c2ccc(N)cc2)c2ccccc2S1 (stereo not drawn)",
    "CMP": "=",
    "CC50 at 72 h [µM]": 102
  },
  {
    "COMPOUND": "O=C1CCSc2ccc(F)cc21",
    "CMP": ">",
    "CC50 at 72 h [µM]": 706
  },
  {
    "COMPOUND": "O=C(N/N=C1\\CCSc2ccccc21)c1ccncc1",
    "CMP": "=",
    "CC50 at 72 h [µM]": 706
  },
  {
    "COMPOUND": "CC1C/C(=N\\NC(=O)c2ccccc2)c2ccccc2S1 (stereo not drawn)",
    "CMP": "=",
    "CC50 at 72 h [µM]": 150
  },
  {
    "COMPOUND": "NC(=S)N/N=C1\\CC(c2ccccc2)Sc2ccccc21 (stereo not drawn)",
    "CMP": "=",
    "CC50 at 72 h [µM]": 50.1
  },
  {
    "COMPOUND": "CC1C/C(=N\\NC(=O)c2ccncc2)c2ccccc2S1 (stereo not drawn)",
    "CMP": ">",
    "CC50 at 72 h [µM]": 672
  },
  {
    "COMPOUND": "O=C1CC(c2ccccc2)Sc2ccccc21 (stereo not drawn)",
    "CMP": ">",
    "CC50 at 72 h [µM]": 41.6
  }
]

Attribution: paper PMC6017792
